Exercise: state measured growth inhibition for each of the molecules provided.
# procedure text: NCI Yeast Anticancer Drug Screen. Data for the rad50 strain (AID 155);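 also: 0% = growth of vehicle-only cultures of the same strain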
# condition context: S. cerevisiae rad50 strain growth inhibition; at 5.0 µM (retest, dose inferred, filed as 0.5); stronger effect = higher value
This is part of a sample that, as a whole, favours compounds with a hit. Of some 79,000 tested, about 15% had one in any assay.
One number for each entry, in %.

Name the reported growth inhibition value associated with the molecule COC(=O)C#CC(=O)OC 14

Name the reported growth inhibition value associated with the molecule COc1ccc(/C=C/C(=O)CCN2CCN(CCC(=O)/C=C/c3ccc(OC)cc3)CC2)cc1 16

Give growth inhibition for each listed item.
1. CCC[CH2][Sn]1([CH2]CCC)[O]N=C(c2ccccc2)C(c2ccccc2)[O]1 (configuration not stated)
2. N#CC(=C1C=CC(=NOC(=O)Nc2cccc3ccccc23)C=C1)c1ccccc1

19
44

Give growth inhibition for each listed item.
1. C=CCc1c2c(ccc(=O)c1O)-c1c(cc(OC)c(OC)c1OC)CCC2NC(C)=O (configuration not stated)
2. Cc1cc(NS(=O)(=O)c2ccc(N=Nc3cc(N=Nc4ccc(S(=O)(=O)Nc5cc(C)nc(C)n5)cc4)c4c(NC(=O)C(Cl)Cl)cccc4c3OC(=O)C(Cl)Cl)cc2)nc(C)n1 (tested in a mixture with another compound)

1: -3; 2: 16

* * *

# procedure text: NCI Yeast Anticancer Drug Screen. Data for the mec2-1 strain (AID 157)
# condition context: S. cerevisiae mec2-1 strain, at 5.0 µM (retest, dose inferred, filed as 0.5), stronger effect = higher value
This is part of a sample that, as a whole, favours compounds with a hit. Of some 79,000 tested, about 15% had one in any assay.
reported endpoint: growth inhibition (%)
One number for each entry, in %.

// known answers, use as guide
Name the reported growth inhibition value associated with the compound OCC(O)C(O)C(O)C(/C=N/Nc1ccccc1)=N/Nc1ccccc1 (stereo unspecified) -2

Name the reported growth inhibition value associated with the compound COC(=O)c1ccc(O)c(OC)c1 1

Name the reported growth inhibition value associated with the compound O=c1cc[nH]c2ccccc12 24

Name the reported growth inhibition value associated with the compound COC(=O)[C@]1(C)CCC[C@]2(C)c3cc(C(C)=O)c(C(C)C)cc3CC[C@@H]12 7

Name the reported growth inhibition value associated with the compound Clc1ccc(CN2CCCN(Cc3ccc(Cl)cc3)C2c2cc3ccccc3c3ccccc23)cc1 19

Give growth inhibition for each listed item.
1. Nc1nc(Cl)cc(NCCCCCCCCCCNc2cc(Cl)nc(N)n2)n1
2. NC(=O)c1cc(Br)cc(Br)c1O
3. CCN(CC)CCNc1n[n+]([O-])c2cc([N+](=O)[O-])ccc2[n+]1[O-]
4. Cc1cc(NCCCCCCCNc2cc(C)nc3cc([N+](=O)[O-])ccc23)c2ccc([N+](=O)[O-])cc2n1
5. CC(C)(S)C(N)C(=O)O (stereo unspecified)
6. COc1cc(O)c2c(c1)C(=O)c1cc3c(c(O)c1C2=O)C(OC1OC(C)C(OC)C(O)C1OC)C(OC)C(C)(O)C3=O (stereo unspecified)

1. 3
2. -13
3. 5
4. 15
5. 1
6. 24

* * *

# procedure text: NCI Yeast Anticancer Drug Screen. Data for the mlh1 rad18 strain (AID 175)
# condition context: S. cerevisiae mlh1 rad18 strain growth inhibition; at 5.0 µM (retest, dose inferred, filed as 0.5)
The panel holds about 79,000 compounds, 15% with a hit somewhere; the sample as a whole holds those more often. The source made the active and inactive calls. No stated cut-off is given here; in the data, active means growth inhibition above about 70%; inactive means the rest.
Answer with one of the outcomes given here: 1 = active, -1 = inactive

Please review the following examples before continuing.
Check the results log: what was the call for CC(CCc1nc2ccccc2s1)(c1ccc(O)cc1)c1ccc(O)cc1 ? -1

Check the results log: what was the call for Nc1ccc2cc3ccc(N)cc3nc2c1 ? -1

Check the results log: what was the call for COC(=O)C1OC(OC(C)=O)C(OC(C)=O)C(OC(C)=O)C1OC(C)=O (stereo not drawn) ? -1

Check the results log: what was the call for CCCCCCCCC(Sc1n[nH]c(=O)[nH]c1=O)C(=O)OCC (stereo not drawn) ? -1

Check the results log: what was the call for CCOC(=O)C(Cc1c[nH]c2cc([N+](=O)[O-])ccc12)NS(=O)(=O)c1ccc2ccccc2c1 (stereo not drawn) ? -1

New cases:
Check the results log: what was the call for CC(C)CCCC(C)C1CCC2C3CC=C4CC([n+]5cccc6ccccc65)CCC4(C)C3CCC12C (stereo not drawn) ? 1

Check the results log: what was the call for O=c1ccn(C2CC(O)C(COC(c3ccccc3)(c3ccccc3)c3ccccc3)O2)c(=O)[nH]1 (stereo not drawn) ? -1

Check the results log: what was the call for O=C(N/C=C/C=C/Sc1ccccc1)OCc1ccccc1 ? -1

Check the results log: what was the call for Clc1ccc2c(c1)[nH]c1c2nc2ccccn21 ? -1

Check the results log: what was the call for CC1(C)N(OC2CCCCO2)C(c2ccccc2)C(c2ccccc2)=[N+]1[O-] (stereo not drawn) ? -1

Check the results log: what was the call for c1cc2c3c(cccc3c1)-c1cnccc1-2 ? -1

Check the results log: what was the call for CCCCN(C(=O)CCl)c1ccccc1 ? -1

Check the results log: what was the call for c1ccc([P+](CCCCCCCC[P+](c2ccccc2)(c2ccccc2)c2ccccc2)(c2ccccc2)c2ccccc2)cc1 ? 1

Check the results log: what was the call for CCCCCC(C)c1ccc(O)c(C)c1 (stereo not drawn) ? -1

Check the results log: what was the call for NC(=O)N/N=C/c1ccc([N+](=O)[O-])o1 ? -1

Check the results log: what was the call for Cc1cc2c(c(Br)c1O)Oc1c(cc(C)c(O)c1Br)C21OC(=O)c2ccccc21 ? 1

Check the results log: what was the call for CCN1CCC(O)(c2ccc(Oc3ccccc3)cc2)C(C(=O)c2ccc(Oc3ccccc3)cc2)C1 (stereo not drawn) ? -1

Check the results log: what was the call for NC(CCCCNC(=O)c1ccccc1)C(=O)O (stereo not drawn) ? -1
